Quick reference: pEC50 of the listed items.
tested on: T1, recombinant rat VISTA (His-tagged) (rat, UniProt A0ABK0L5H3 33-192)
T1 sequence: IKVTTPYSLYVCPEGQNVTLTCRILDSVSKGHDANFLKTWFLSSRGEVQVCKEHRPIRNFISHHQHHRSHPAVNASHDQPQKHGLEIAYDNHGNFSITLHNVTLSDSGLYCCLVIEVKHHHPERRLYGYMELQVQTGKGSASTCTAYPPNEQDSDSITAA
method: ELISA, plate coated with rat VISTA
pEC50: −log10 of the molar value.

- binder: "anti-VISTA clone V4-C27 IgG1 (antibody, V domains shown) VH: QVQLQESGPGLVKPSDTLSLTCTVSGYSITSDYTWNWIRQTPGKGLEWIGHITYSGSVSYNPSLRSRVTISRDTSKNQFSLKLSSVTAADTATYSCARALYYPWYFDVWGTGTTVTVSS VL: EIVLTQSPATLSLSPGERATLSCRASSSVGYIHWYQQKPGQAPRPLIYATYNRATGIPARFSGSGSGTDNTLTISSLEPEDSAVYYCQQWSSYPPITFGGGTKLEVKR"
  pEC50: 9.71
- binder: "anti-VISTA clone V4-C31 IgG1 (antibody, V domains shown) VH: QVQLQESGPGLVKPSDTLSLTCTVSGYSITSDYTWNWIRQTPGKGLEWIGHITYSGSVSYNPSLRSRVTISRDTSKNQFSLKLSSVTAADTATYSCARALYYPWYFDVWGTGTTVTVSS VL: EIVLTQSPATLSLSPGERATLSCRASSSVGYIHWYQQKPGQAPRPLIYATYYRTTGIPARFSGSGSGTDNTLTISSLEPEDSAVYYCQQWSSYPPITFGGGTKLEVKR"
  pEC50: 9.65
- binder: "anti-VISTA clone V4-C24 IgG1 (antibody, V domains shown) VH: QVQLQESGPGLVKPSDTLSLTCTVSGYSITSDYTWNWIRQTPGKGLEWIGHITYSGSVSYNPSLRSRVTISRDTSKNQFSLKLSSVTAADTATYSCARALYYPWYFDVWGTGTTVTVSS VL: EIVLTQSPATLSLSPGERATLSCRASSSVGYIHWYQQKPGQAPRPLIYTTSYRATGIPARFSGSGSGTDNTLTISSLEPEDSAVYYCQQWSSYPPITFGGGTKLEVKR"
  pEC50: 9.70
- binder: "anti-VISTA clone V4-C30 IgG1 (antibody, V domains shown) VH: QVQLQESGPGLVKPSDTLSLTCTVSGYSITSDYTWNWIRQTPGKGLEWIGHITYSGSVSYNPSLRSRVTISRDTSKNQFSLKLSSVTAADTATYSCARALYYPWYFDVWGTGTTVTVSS VL: EIVLTQSPATLSLSPGERATLSCRASSSVGYIHWYQQKPGQAPRPLIYATYYRATGIPARFSGSGSGTDNTLTISSLEPEDSAVYYCQQWSSYPPITFGGGTKLEVKR"
  pEC50: 9.69
